# Test system: MEM-, imipenem/relebactam-, and ceftolozane/tazobactam-nonsusceptible P. aeruginosa
# run.description: MIC, broth microdilution
# Type: cell-based, Pseudomonas aeruginosa
# experimental.conditions: Pseudomonas aeruginosa, MEM-nonsusceptible Pseudomonas aeruginosa (76); fixed concentration (μg/mL) in label; read-out: MIC50
parameter.measured: MIC50 (µg/mL)
Please respond with the number in µg/mL and leave the unit unwritten.

{"compound.structure.string": "C[C@H]1[C@H](NC(=O)/C(=N\\OC(C)(C)C(=O)O)c2csc(N)n2)C(=O)N1S(=O)(=O)O", "MIC50 [µg/mL]": 32}

Ask: For C[C@@H](O)[C@H]1C(=O)N2C(C(=O)O)=C(S[C@@H]3CN[C@H](C(=O)N(C)C)C3)[C@H](C)[C@H]12 , what is its reported MIC50?
Reply: 16

Ask: For CC(C)(O/N=C(\C(=O)N[C@@H]1C(=O)N2C(C(=O)[O-])=C(C[n+]3ccccc3)CS[C@H]12)c1csc(N)n1)C(=O)O , what is its reported MIC50?
Reply: 32

---

# study.system: NDM-7 (Klebsiella pneumoniae, UniProt C7C422, D130N/M154L)
# Sequence (C7C422 29-270 D130N/M154L): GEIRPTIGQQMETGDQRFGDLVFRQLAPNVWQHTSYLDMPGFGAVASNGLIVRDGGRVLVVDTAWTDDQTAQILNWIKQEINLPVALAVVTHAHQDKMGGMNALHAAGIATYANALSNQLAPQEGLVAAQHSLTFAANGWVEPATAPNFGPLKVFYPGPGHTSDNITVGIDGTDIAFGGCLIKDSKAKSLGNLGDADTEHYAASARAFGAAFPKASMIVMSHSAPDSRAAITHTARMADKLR
# run.description: Ki app determination (Waley's method)
pKi: −log10 of the molar value.
parameter.measured: pKi

{"compound.structure.string": "C[C@]1(Cn2ccnn2)[C@H](C(=O)O)N2C(=O)C[C@H]2S1(=O)=O", "parameter.measured": "pKi", "reported": "< 4.00"}
{"compound.structure.string": "N[C@@H](C(=O)N1CC(Oc2ccc3c(c2C(=O)O)OB(O)CC3)C1)c1c[nH]cn1", "parameter.measured": "pKi", "reported": 7.28}
{"compound.structure.string": "NC(=O)[C@@H]1CC[C@@H]2CN1C(=O)N2OS(=O)(=O)O", "parameter.measured": "pKi", "reported": "< 4.00"}
{"compound.structure.string": "O=C(O)C[C@@H]1CC[C@H](NC(=O)Cc2cccs2)B(O)O1", "parameter.measured": "pKi", "reported": "< 4.00"}

Ask: For O=C(NC1CCNCC1)[C@@H]1CC[C@@H]2CN1C(=O)N2OS(=O)(=O)O , what is its reported pKi?
Reply: < 4.00

---

# study.system: KPC-38 (Klebsiella pneumoniae)
# Sequence (Q9F663 25-293 limits assumed): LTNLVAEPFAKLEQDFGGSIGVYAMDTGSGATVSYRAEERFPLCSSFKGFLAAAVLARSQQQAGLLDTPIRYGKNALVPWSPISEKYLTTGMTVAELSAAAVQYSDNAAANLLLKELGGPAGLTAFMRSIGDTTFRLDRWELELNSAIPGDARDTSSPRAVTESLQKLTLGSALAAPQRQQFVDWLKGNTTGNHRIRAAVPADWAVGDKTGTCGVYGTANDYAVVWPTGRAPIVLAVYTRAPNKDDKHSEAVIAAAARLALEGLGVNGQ
# run.description: Ki app determination (Waley's method)
# experimental.conditions: read-out: Ki app, means from three independent studies
Below is a list of entries, each paired with its recorded Ki value.
Please respond with the number in nM and leave the unit unwritten.

Please review the entries below; each comes with its answer.
{"compound.structure.string": "NCCN[C@H]1CC[C@H](CC(=O)N[C@H]2Cc3cccc(C(=O)O)c3OB2O)CC1", "study.system": "KPC-38 (Klebsiella pneumoniae)", "Ki (nM)": 0.617}
{"compound.structure.string": "O=C(O)C[C@@H]1CC[C@H](NC(=O)Cc2cccs2)B(O)O1", "study.system": "KPC-38 (Klebsiella pneumoniae)", "Ki (nM)": 48.3}
{"compound.structure.string": "C[C@]1(Cn2ccnn2)[C@H](C(=O)O)N2C(=O)C[C@H]2S1(=O)=O", "study.system": "KPC-38 (Klebsiella pneumoniae)", "Ki (nM)": 112}

Let us examine a further case.
Ask: For N[C@@H](C(=O)N1CC(Oc2ccc3c(c2C(=O)O)OB(O)CC3)C1)c1c[nH]cn1 , what is its reported Ki?
Reply: 0.836
